The molecules listed here are annotated with their pIC50.
- System: MCF7
- assaySummary: Cytotoxicity against human MCF7 cells by MTT assay
- Type: functional, cell-based
pIC50 is a log-scale quantity: -log10 of the concentration expressed in molar.

- molecule: "COc1cccc2c1C(=O)c1c(O)c3c(c(O)c1C2=O)C[C@@](O)(C(=O)CO)C[C@@H]3O[C@H]1C[C@H](N)[C@H](O)[C@H](C)O1"
  readoutLabel: "pIC50"
  experimentalValue: 6.37

We now examine a further molecule.
// field: pIC50; key: CCC(C)C(=O)c1c(O)cc(O)c2c1O[C@](C)(CC/C=C(\C)CCC=C(C)C)[C@@H](CC=C(C)C)C2 (some centres not stated) ; value = 4.63

Attribution: ChEMBL document CHEMBL1158115
